Origin of measurements: the nanobody polyreactivity screen of Harvey et al. (2022)

Test: yeast display, Sf9 membrane polyspecificity reagent, FACS + sequencing; frameworks hold sequencing errors
measured endpoint: polyreactivity (PSR sort gate)

>>> measured("QVQLVESGGGLVQAGGSLRLSCAASGSTFGSNAMGWYRQAPGKERELVAAIRWSGGSTYYADSVKGRFTISRDNAKNTVYLQMNSLKPEDTAVYYCAGSFFQYNRRFNYWVQGTQVTVSS")
"high polyreactivity"
>>> measured("QVQLVESGGGLVQAGGSLRLSCAASGSIFQKYAMGWYRPAPGKERELVAAISSGGGRTYYADSVKGRFTISRDNAKNTVYLQMNSLKPEDTAVYYCAARGSYTSIFDYWGQGTQVTVSS")
"high polyreactivity"

* * *

Experiment: yeast display, Sf9 membrane polyspecificity reagent, FACS + sequencing; frameworks hold sequencing errors
measured endpoint: polyreactivity (PSR sort gate)

>>> measured("QVQLVESGGGLVQAGGSLRLSCAASGGIFKSNTMGWYRQAPGKERELFAAITSGGSTNYADSVKGRFTISRDNAKNTVYLQMNSLKPEDTAVYYCNTDDRYYTPSRAVFQYDYWGQGTQVTVSS")
"low polyreactivity"
>>> measured("QVQLVESGGGLVQEGGSLRLSCAASGLTFPYYAMGWYRQAPGKERELVAGISDSGGSTYYADSVKGRFTISRDNAKNTVYVQMNSLKPEDTAVYYCAAQGVDSYYENVYWGQGSQVTVSS")
"high polyreactivity"
>>> measured("QVQLVESGGGLVQAGGSLRLSCAASGSTFRQYAMGWYRQAPGKERELVAAISSSGSTTYYADSVKGRFTISRDNAKNTVDVQMNSRKPEDTAVYYCAATYGFYYFPYDYWGQGTQVTVSS")
"low polyreactivity"
>>> measured("QVQLVESGGGLVQAGGSLRISCAPSGSNINAYAIGWYRQSTGKERELVARITRGDGTTYYADSVKGRFTISRDNAMNTVYLQMNRLKPEDNAVYYCNRVEYYSVWGYDYWVQGTQVTVSS")
"low polyreactivity"
>>> measured("QVQLVESGGGLVQAGGSLRLSCAASGSIFDDNAMGWYRQAPGKERELVAGISRGGSTNYADSVKGRFTISRDNANNTVYLQMNSLKPEDTAVYYCNKRYKPSWTTYDYWGQGTQVTVSS")
"low polyreactivity"
>>> measured("QVQLGESGGGLVQAGGSLRLSCAASGRTFLKNALGWYRPAPGKERELVAAITSGGSTNYADSVKGRFTISRDNAKNTVYFQMNCLKPEDTAVYYCAAEYTYGSPYDYWGQGTQVTVSS")
"low polyreactivity"
>>> measured("QVQLVESGGGLVQAGGSLRLSCAASGSTLTRNTMGCYRQAPAKERELVATNTRSGGSTYYADSVKGRFTISRDNAKNTVYLQMNSLKPEDTAVYYCAVRRQTFRYVYPGMDYWGQGTQVTVSS")
"high polyreactivity"
>>> measured("QVQLVESGGGLVKAGGSLRLSCAASGSTFLWTTMGWYRPAPGKERELVAAISRSGGSTYYADSVKGRFTISRDNAKNTVYLQMISLKPEDTAVYYCAARTAGPWSWYHYWGQGTQVTVSS")
"high polyreactivity"
>>> measured("QVKLVESGGGLVQARGSLRLSCAASGRIFTIYAKGWYRPAPGKERELVAAITRGGNTNYADSVKGRFTISRDNAKNTVYLQMNSLKPEDTAVYNCAARANVYTKKRDYWGQGTQVTVSS")
"high polyreactivity"
>>> measured("QVQLVESGGGLVQAGGSLRLSCAASGITFISYVKGWYRQAPGKEREVVAAISKRGGSTYYADSVKGRFTISRDNAKNTVYFKINSLKAEDTAVYYCAAKTIPWSVGYDYWGQGTQVTVSS")
"high polyreactivity"
>>> measured("QVQLVESGGGLVQAGGSLRLSCAASGRTFWYYTMGWYRQAPGKERELVAAISSGGTTNYADSVKGRFTISRDNAKNTVYLQMNSLKPEDTAVYYCAARYRSYAVRLRGYDYWGQGTQVTVSS")
"high polyreactivity"

* * *

Experiment: yeast display, Sf9 membrane polyspecificity reagent, FACS + sequencing; frameworks hold sequencing errors
measured endpoint: polyreactivity (PSR sort gate)

>>> measured("QVQLVESGGGLVQAGGSLRLSCAASGLIFSRNAMGWYRQAPGKERELVAAISGGGGSTYYADSVKGRFTISRDNAKNTVYLQMNSLKPEATAVYYCAAKGYWWLTPWIATYDYWGQGTQVTVSS")
"high polyreactivity"
>>> measured("QVQLVESGGGLVQAGGSLRLICAASGRTFDNYAMGWYRQAPGKEREFVAAITTGVGSTYADSVKGRFTISRDNAKNTVYLQMNSLKPEDTAVYYCAGDSYWLFDAYDYWGQGTKVTVSS")
"low polyreactivity"
>>> measured("QVQLVESGGGLVQAGGSLRLSCAASGSTFGWYAMGWYRQAPGKETELDAAISWSGGSTYYADSVKGRFTISRDNAKNTVYLQMNSLKPEDTAVYYCARDTQYPYYFLMDYWGQGTQVTVSS")
"low polyreactivity"
>>> measured("QVQLVESGGGLVQAGGSLRISCAASGRTFRVYSMGWYIQAPGKEWELVASISARSGSTYYADSVKGRFTISRDNAKNTVYLQLNSVKPEDTAVYYSAAARRGFKYDYWGQGTQVTVSS")
"high polyreactivity"
>>> measured("QVQLEESGGGLDQAGGSLRLSCAASARTFDGYAMGWYRQAPGKERELVAAISSGDSTYYADSVKGRFTISRDKAKNTVYLQMNSLKPEDTAVYYCAASFYYSSYGYWGQGTQVTVSS")
"low polyreactivity"
>>> measured("QVQLVETGGGLFQAGGSLRLSCAPCGSIFFSIAMGWYRQAPGKDRELVAAIDSGASSTYADSVKGRFTSSRDHAKNTVYLQINSLKPEDTAVYYFAADYPATGADGYDYWGQVTQVTVSS")
"low polyreactivity"
>>> measured("QVQLVESGGGLVQAGGSLRLSCAASGRTLNDYTMGWYRQAPGKERELVAAISSSGVRTYYADSVKGRFTISRDNAKNTVYLQMNSLKPEDTAVYYAKRAGYDRRWNYDYWGQGTQVTVSS")
"high polyreactivity"
>>> measured("QVQLVESGGGLVQAGGSLRLSCAASGFIFGDNAMGWYRQAPGKERELVAAINSGSRTSYADSVKGRFTISRDNAKNTVFLQMNSLKPEDTAVYYCAAESVSSGDNASRYDFWGQGTQVTVSS")
"low polyreactivity"
>>> measured("QVQLVESGGGLVQAGGSLRLSCAASGRNFGAYAMGWYRPAPGKERELVAAITTAGSTHYADSVKGRFTISRDNAKNTVYLQMKSLKPQDTAVYYCAADGIARSYVLFDAYDFLYDYWGQGTQVTVSS")
"low polyreactivity"
>>> measured("QVQLVESGGGLVQAGGSLRLSCAASGFTFRYYAMGWYRQAPGKERELVAAITRSGGSTSYADSVKGRFTISRDNAKNNVYLQMNSLKPEDTAVYYCNTSTSRVPGNGDYWGQGTQVTVSS")
"high polyreactivity"
>>> measured("QVQLVESGGGLVQAGGSLRLSCAASGYTLGTYAMGWYRQAPGKERELVAAITWSGGRTNYADSVKGRFTISRDNAKNTVYLQMNSLKPEDTAVYYCAARYYFPFRRFRRMDYWGQGTQVTVSS")
"high polyreactivity"
>>> measured("QVQLVESGGGLVQAGGSLRLSCAASGNIFRKNAMGWYRQAPGKERELVAAITSVGSTNYADSVKGRFTISRDNAKNTVYLQMTSLKPEDTAVYYCDARSQIYYRYRSYGYWGQGTQVTVSS")
"high polyreactivity"
>>> measured("QVQLVESGGGLVQAGGSLRLSCAASGFTFYYNAMGWYRQAPGKERELVAAITWDGGRTYYADSVKGRYTISRDNAKNTVYLQMNSLKTVDTAVYYCAAVEYSEHWDGYSWGEYYYWGQGTQVTVSS")
"high polyreactivity"
>>> measured("QVQLVESGGGLVQAGGSLRLSCAASGNTFFDNAMGWYRQAPGKERELVAAITFSGGSTYYADSVKGRFTISRDNAKNTVYLQMNSLKPEDTAVYYCAAVIRSRYSYYEYDYWGQGTQVTVSS")
"high polyreactivity"
>>> measured("QVQLVESGGGLVQAGGSLRLSCAASGRTFYRYAMGWYRQAPGKESELVAAISSSGGSTYYADSVKGRFTISRDNAKNTVYFQMNSLKPEDTAVYDCADQYFLFTTPYRYAPRMGYWGQGTQVTLSS")
"high polyreactivity"
>>> measured("QDQLVESGGGLVQAGGSLRLSCAASGSTFPPYAMGWNRQAPGKERELVDTSTRIGGSTYYADSVKGRFTISRDNAKKTVYLQKNSLKPEDTALYYCTARRYQSYRYYYWGQGTQVTVSS")
"high polyreactivity"
>>> measured("QVQRVESGGGLVQAGGSLRLSCAASGITFKSYTMGWYRPAPGKERELVAANTASGGTTRYADSVKGRFTISRDNAKKTVYLQMNSLKPEDTAVYYCNALPFRYGKRRGYWGQGTQVTVSS")
"low polyreactivity"
>>> measured("QVQLVESVGGLVQAGGSLRLSCAASGFTFVGNTMGWYRQAPGKERELVAAIRGRDGRTYYADSVKGRFTISRDNAKNTVYLQMNSLKPEDTAVYYCNVDVKYSVRSEFDFWGQGTQVTVSS")
"low polyreactivity"
>>> measured("QVQLVESGGGLVQAGRTLRLSCAASGRLFSHNAMGWYRQAPGKEREWVAAISGSGGSTYYADSVKGRFTISRDNAKNTVYLQMNSLKPEDTAVYYCAARFAVLVTRRFYYWGQGTQVTVSS")
"high polyreactivity"
>>> measured("QVQLVESGGGLVQAGGSLRLSCASSGSTIRSYAMGWYRQAPGKERELVAVISSGDSTYYADSVKGRFTISRDNAKNTVYLQMNSLKPDDTAVYYCAADSYVLGRWYGYWGQGTQVTVSS")
"low polyreactivity"
>>> measured("QVQLVESGGGLVQAGGSLRLSSAASGRIFTVYAMGWYRQAPGKERELVAAITRGGGGTYYADSVKGRFTITRDYAKNTDYLQMNRLKPEDTAVYYCAATHNQVVARYSFNYWGQGTQVTVSS")
"high polyreactivity"
